# System: Escherichia coli (ECO) isolates
# protocol details: MIC of compounds alone and combined with antibacterials, broth microdilution (CLSI)
# Type: cell-based
# experimental conditions: ECO 190317; AF1 @ 4 μg/mL

# compound, MIC ATB in combination
rows = [
    ("C=CC1=C(C(=O)O)N2C(=O)[C@@H](NC(=O)/C(=N\\OCC(=O)O)c3csc(N)n3)[C@H]2SC1 [FIX, Cefixime]", "<=0.25 μg/mL"),
    ("C=CC1=C(C(=O)O)N2C(=O)[C@@H](NC(=O)/C(=N\\O)c3csc(N)n3)[C@H]2SC1 [CDR, Cefdinir]", "<=0.25 μg/mL"),
    ("COCC1=C(C(=O)O)N2C(=O)[C@@H](NC(=O)/C(=N\\OC)c3csc(N)n3)[C@H]2SC1 [POD, Cefpodoxime]", "<=0.25 μg/mL"),
]

// data source = patent US20200017496A1
